assay_summary: MAD study: nacubactam pharmacokinetics, multiple doses and single dose alone or with meropenem
Type: in vivo, human
particulars: human, plasma and urine, intravenous, 2000 mg, MAD part 1, 2,000 mg q8h for 7 days, day 7, n = 6, geometric mean (%CV)
property_name: CL renal at 7 days (mL/min)
Kindly provide the numeric value in mL/min only, without the unit symbol.

**Q:** Given the compound NCCONC(=O)[C@@H]1CC[C@@H]2CN1C(=O)N2OS(=O)(=O)O [Nacubactam] , what is its reported CL renal at 7 days?
**A:** 104

---

assay_summary: MAD study: nacubactam pharmacokinetics, multiple doses and single dose alone or with meropenem
Format: in vivo, human
particulars: human, plasma, intravenous, 4000 mg, MAD part 2, 4,000 mg q8h for 7 days, day 9, n = 6, geometric mean (%CV)
property_name: Cmax at 7 days (µg/mL)
Give just the number in µg/mL; leave the unit off.

**Q:** Which Cmax at 7 days is reported for this compound? `NCCONC(=O)[C@@H]1CC[C@@H]2CN1C(=O)N2OS(=O)(=O)O`
**A:** 179

---

assay_summary: MAD study: nacubactam pharmacokinetics, multiple doses and single dose alone or with meropenem
Format: in vivo, human
particulars: human, plasma, intravenous, 1000 mg, MAD part 1, 1,000 mg q8h for 7 days, day 7, n = 6, geometric mean (%CV); read-out: Vss
property_name: Vd at 7 days (L)
Could you give me the number in L? Just the number is fine.

**Q:** Find the recorded Vd at 7 days belonging to `NCCONC(=O)[C@@H]1CC[C@@H]2CN1C(=O)N2OS(=O)(=O)O` and report it.
**A:** 21.9

---

assay_summary: SAD study: single-dose nacubactam pharmacokinetics (plasma/urine, LC-MS/MS, noncompartmental)
Format: in vivo
particulars: human, plasma, iv, single i.v. doses 50 to 2,000 mg, read-out: mean CL, range across doses
property_name: clearance

**Q:** Could you share which clearance value was measured for `NCCONC(=O)[C@@H]1CC[C@@H]2CN1C(=O)N2OS(=O)(=O)O` ?
**A:** 117 to 164 mL/min

---

assay_summary: SAD study: single-dose nacubactam pharmacokinetics (plasma/urine, LC-MS/MS, noncompartmental)
Assay type: in vivo
particulars: human, plasma, iv, single i.v. dose 50 mg, n = 6, mean (SD), read-out: t1/2 (converted)
property_name: half-life
Report as: number unit

**Q:** Which half-life is reported for this compound? `NCCONC(=O)[C@@H]1CC[C@@H]2CN1C(=O)N2OS(=O)(=O)O`
**A:** 1.83 h

---

assay_summary: clinical
particulars: human, in vivo, CL
property_name: clearance (mL/min)
# number only, unit mL/min dropped from output

**Q:** Could you tell me which clearance is on file for C[C@@H](O)[C@H]1C(=O)N2C(C(=O)O)=C(S[C@@H]3CN[C@H](C(=O)N(C)C)C3)[C@H](C)[C@H]12 [meropenem] ?
**A:** 253

---

assay_summary: SAD study: single-dose nacubactam pharmacokinetics (plasma/urine, LC-MS/MS, noncompartmental)
Format: in vivo
particulars: human, plasma, iv, single i.v. dose 50 mg, n = 6, mean (SD)
property_name: AUC(0-inf) (ng·h/mL)
// return numeric value only (unit: ng·h/mL, not printed)

**Q:** Entry `NCCONC(=O)[C@@H]1CC[C@@H]2CN1C(=O)N2OS(=O)(=O)O` : reported AUC(0-inf) = ?
**A:** 5210
